- tested.system: T1, rat NGF (rat, UniProt P25427 122-241)
- T1 construct: also called rN
- T1 sequence (P25427 122-241 limits assumed): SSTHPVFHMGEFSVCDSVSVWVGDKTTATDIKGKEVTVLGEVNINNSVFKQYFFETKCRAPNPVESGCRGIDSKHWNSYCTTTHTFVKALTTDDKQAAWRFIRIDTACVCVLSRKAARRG
- method.notes: SPR (Biacore T200), 100 nM mAb on NGF chip, similarity to parent mAb
- Excerpt: The region of an antibody responsible for antigen recognition represents the paratope. A paratope is created by a combination of amino acids in the complementarity determining regions (CDRs) of both the heavy and light chain variable regions. The binding between antibody and antigen is often mediated by side chains of CDR residues with side chains or carbohydrate moieties of the antigen. […]
Exercise: for every item that follows, state its recorded Percent Similarity Score (KD on rN).
The number alone won't do; follow it with the unit.

can9L12VL_D93A (antibody, V domains shown) VH: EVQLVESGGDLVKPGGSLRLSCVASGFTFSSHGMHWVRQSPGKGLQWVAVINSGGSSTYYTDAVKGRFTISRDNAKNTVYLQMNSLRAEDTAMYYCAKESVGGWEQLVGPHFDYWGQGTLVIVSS VL: QSVLTQPTSVSGSLGQRVTISCSGSTNNIGILGASWYQLFPGKAPKLLVYGNGNRPSGVPDRFSGADSGDSVTLTITGLQAEDEADYYCQSFATTLGAHVFGGGTHLTVL: 3.7%

Here is the next item to consider.
Prompt line: Look up Percent Similarity Score (KD on rN) for this binder: can48L2VL_M27A (antibody, V domains shown, CDR scanning mutant of ZTS-842 (48L2)) VH: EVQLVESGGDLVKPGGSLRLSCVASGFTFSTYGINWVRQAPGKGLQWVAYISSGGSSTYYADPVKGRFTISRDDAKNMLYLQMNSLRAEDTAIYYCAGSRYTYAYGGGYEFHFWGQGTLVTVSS VL: QAVLNQPASVSGALGQKVTISCSGSTADIDIFGVSWYQQLPGKAPKLLVDSDGDRPSGIPDRFSGSRSGNSGTLTITGLQAEDEADYHCQSGDSTLGALAIFGGGTHVTVL
Response line: 37.9%

Value source: patent US20210221899A1
